# Target entity: T1, human TNFR1 on MRC-5 cells (human, UniProt P19438 30-455)
# T1 sequence (looked up): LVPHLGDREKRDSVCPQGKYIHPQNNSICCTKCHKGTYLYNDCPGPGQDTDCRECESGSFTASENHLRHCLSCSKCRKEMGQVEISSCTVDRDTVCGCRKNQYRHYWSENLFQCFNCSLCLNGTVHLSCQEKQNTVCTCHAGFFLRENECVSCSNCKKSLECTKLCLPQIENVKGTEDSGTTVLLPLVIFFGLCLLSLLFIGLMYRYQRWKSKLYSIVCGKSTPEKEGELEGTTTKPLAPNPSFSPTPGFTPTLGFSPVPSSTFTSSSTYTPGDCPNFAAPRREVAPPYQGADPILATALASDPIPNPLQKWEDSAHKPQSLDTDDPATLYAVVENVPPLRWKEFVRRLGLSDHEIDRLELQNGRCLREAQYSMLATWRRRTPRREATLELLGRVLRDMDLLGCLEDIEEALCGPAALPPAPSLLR
# Assay notes: cell-based or functional assay
Give Human MRC5 ND50 for every item shown.
Response body: numeric value in nM, unit text excluded.

Bench note: what Human MRC5 ND50 did DOM1h-574-138 (other, VH dAb) VH: EVQLLESGGGLVQPGGSLRLSCAASGFTFFKYSMGWVRQAPGKGLEWVSQISDTADRTYYAHSVKGRFTISRDNSKNTLYLQMNSLRAEDTAVYYCAIYTGRWAPFEYWGQGTLVTVSS show?
1.4

I would be grateful if you could share the reported Human MRC5 ND50 for DOM1h-574-162 (other, VH dAb) VH: EVQLLESGGGLVQPGGSLRLSCAASGFTFFKYSMGWVRQAPGKGLEWVSQISDTADRTYYSHSVKGRFTISRDNSKNTLYLQMNSLRAEDTAVYYCAIYTGRWVPFEYWGQGTLVTVSS .
1.2

Fill in: Human MRC5 ND50 of DOM1h-574-155 (other, VH dAb) VH: EVQLLESGGGLVQPGGSLRLSCAASGFTFLKYSMGWVRQAPGKGLEWVSQISDTADRTYYAHSVKGRFTISRDNSKNTLYLQMNSLRAEDTAVYYCAIYTGRWVPFEYWGQGTLVTVSS is ___
2.1

Using the record for DOM1h-574-139 (other, VH dAb) VH: EVQLLESGGGLVQPGGSLRLSCAASGFTFLKYSMGWVRQAPGKGLEWVSQISDTADRTYYAHSVKGRFTISRDNSKNTLYLQMNSLRAEDTAVYYCAIYTGRWAPFEYWGQGTLVTVSS , report its Human MRC5 ND50.
1.1

Requested field: Human MRC5 ND50. Item: DOM1h-574-72 (other, VH dAb; expressed in E. coli, purified on Protein A) VH: EVQLLESGGGLVQPGGSLRLSCAASGFTFVKYSMGWVRQAPGKGLEWVSQISNTADRTYYAHSVKGRFTISRDNSKNTLYLQMNSLRAEDTAVYYCAIYTGRWVPFEYWGQGTLVTVSS
2.7

Requested read-out: Human MRC5 ND50. Entry: DOM1h-574-133 (other, VH dAb) VH: EVQLLESGGGLVQPGGSLRLSCAASGFTFVKYSMGWVRQAPGKGLEWVSQISDTADRTYYDHSVKGRFTISRDNSKNTLYLQMNSLRAEDTAVYYCAIYTGRWEPFVYWGQGTLVTVSS
2.1

I would be grateful if you could share the reported Human MRC5 ND50 for DOM1h-574-109 (other, VH dAb) VH: EVQLLESGGGLVQPGGSLRLSCAASGFTFVKYSMGWVRQAPGKGLEWVSQISDTADRTYYAHSVKGRFTISRDNSKNTLYLQMNSLRAEDTAVYYCAIYTGRWVPFEYWGQGTLVTVSS .
1.8

Which value of Human MRC5 ND50 has been reported for DOM1h-574-135 (other, VH dAb) VH: EVQLLESGGGLVQPGGSLRLSCAASGFTFVKYSMGWVRQAPGKGLEWVSQISDTADRTYYTHSVKGRFTISRDNSKNTLYLQMNSLRAEDTAVYYCAIYTGRWVPFEYWGQGTLVTVSS in the records?
1.8

Value lookup for Human MRC5 ND50; key = DOM1h-574-156 (other, VH dAb) VH: EVQLLESGGGLVQPGGSLRLSCAASGFTFFKYSMGWVRQAPGKGLEWVSQISDTADRTYYAHSVKGRFTISRDNSKNTLYLQMNSLRAEDTAVYYCAIYTGRWVPFEYWGQGTLVTVSS
0.9
